- Target Of Assay: beta-catenin (Homo sapiens, UniProt P35222)
- Construct: made in house; host or cells: E. coli BL21 (DE3) pLysS
- Sequence (P35222 134-665): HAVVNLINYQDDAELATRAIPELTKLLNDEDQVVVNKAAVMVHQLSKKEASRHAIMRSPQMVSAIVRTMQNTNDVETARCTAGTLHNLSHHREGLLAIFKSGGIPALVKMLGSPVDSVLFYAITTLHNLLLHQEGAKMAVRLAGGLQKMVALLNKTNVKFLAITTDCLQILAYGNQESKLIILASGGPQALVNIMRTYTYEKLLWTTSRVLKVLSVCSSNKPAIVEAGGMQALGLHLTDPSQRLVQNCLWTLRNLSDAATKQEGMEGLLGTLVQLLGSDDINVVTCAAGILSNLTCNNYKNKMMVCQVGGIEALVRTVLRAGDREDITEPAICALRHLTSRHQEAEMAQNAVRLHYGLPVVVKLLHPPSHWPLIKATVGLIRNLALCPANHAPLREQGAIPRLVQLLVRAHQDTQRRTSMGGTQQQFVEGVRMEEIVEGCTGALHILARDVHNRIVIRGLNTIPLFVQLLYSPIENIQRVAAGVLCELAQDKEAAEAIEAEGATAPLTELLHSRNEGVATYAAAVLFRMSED
- Test Protocol: Phage Library Screening with NGS, beta-catenin
- Format: binding
- Test Conditions: beta-catenin target concentration 1000; second 1000 column
Recorded Target Concentration 1000 (phage screen NGS readout) values for a group of sequences are listed next.
Value Kind: Target Concentration 1000 (phage screen NGS readout)

# Entry Sequence, Target Of Assay, Test Result
data = [
    ("DPAEHDCMLAAHFCRHF", "beta-catenin (Homo sapiens, UniProt P35222)", 260),
    ("DPAILDCQIAAIECEFA", "beta-catenin (Homo sapiens, UniProt P35222)", 56),
    ("DPAMWICEHAALNCEIR", "beta-catenin (Homo sapiens, UniProt P35222)", 152),
    ("DPAVVECYEAAYTCQYI", "beta-catenin (Homo sapiens, UniProt P35222)", 13),
    ("DPAALSCYQAAFHCQYY", "beta-catenin (Homo sapiens, UniProt P35222)", 17),
    ("DPAYWDCTHAALLCNLD", "beta-catenin (Homo sapiens, UniProt P35222)", 409),
    ("DPAIADCDWAAEHCDLL", "beta-catenin (Homo sapiens, UniProt P35222)", 417),
    ("DPALWNCDHAALLCDHQ", "beta-catenin (Homo sapiens, UniProt P35222)", 10),
    ("DPAILECHMAAFECYIE", "beta-catenin (Homo sapiens, UniProt P35222)", 41),
    ("DPAYWVCEHAALLCTDY", "beta-catenin (Homo sapiens, UniProt P35222)", 227),
    ("DPAHWHCEHAALLCASV", "beta-catenin (Homo sapiens, UniProt P35222)", 234),
    ("DPAYTYCQWAAEHCSLL", "beta-catenin (Homo sapiens, UniProt P35222)", 137),
    ("DPAVFECSLAAIDCLQI", "beta-catenin (Homo sapiens, UniProt P35222)", 81),
    ("DPADWICEHAALTCQEF", "beta-catenin (Homo sapiens, UniProt P35222)", 14),
    ("DPAESDCILAAYICYVE", "beta-catenin (Homo sapiens, UniProt P35222)", 40),
    ("DPAQWACEHAALLCSMD", "beta-catenin (Homo sapiens, UniProt P35222)", 432),
    ("DPAVDECIIAAHICHIW", "beta-catenin (Homo sapiens, UniProt P35222)", 66),
]

* * *

- Target Of Assay: RNF31 PUB domain (Homo sapiens, UniProt Q96EP0)
- Construct: MBP-TEV (N, cleaved yes); made in house; host or cells: E. coli BL21 (DE3) pLysS
- Sequence (Q96EP0 1-179): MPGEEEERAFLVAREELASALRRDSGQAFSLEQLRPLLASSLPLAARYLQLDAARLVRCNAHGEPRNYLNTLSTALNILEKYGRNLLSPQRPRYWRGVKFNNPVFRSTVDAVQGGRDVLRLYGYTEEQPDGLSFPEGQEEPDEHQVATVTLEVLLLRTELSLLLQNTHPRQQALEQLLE
- Test Protocol: Phage Library Screening with NGS, RNF31 PUB domain
- Format: binding
- Test Conditions: RNF31 PUB domain clusters C41-C45; target concentration 100
Ends that are not written are not given here.
Recorded Phage library screen NGS readout, Target Concentration 100 values for a group of sequences are listed next.
Value Kind: Phage library screen NGS readout, Target Concentration 100

# Entry Sequence, Target Of Assay, Test Result
records = [
    ("DPALEDCQWAALYCDEY", "RNF31 PUB domain (Homo sapiens, UniProt Q96EP0)", 1),
    ("DPAFDWCLYAADDCAET", "RNF31 PUB domain (Homo sapiens, UniProt Q96EP0)", 0),
    ("DPAWWSCMYAAWTCDDT", "RNF31 PUB domain (Homo sapiens, UniProt Q96EP0)", 0),
    ("DPAIQECLLAAATCWTY", "RNF31 PUB domain (Homo sapiens, UniProt Q96EP0)", 0),
    ("DPARRECWDAAILCTYY", "RNF31 PUB domain (Homo sapiens, UniProt Q96EP0)", 1),
    ("DPAWTDCDWAALYCEFQ", "RNF31 PUB domain (Homo sapiens, UniProt Q96EP0)", 0),
    ("DPAQEACWDAAIMCTYR", "RNF31 PUB domain (Homo sapiens, UniProt Q96EP0)", 0),
    ("DPAAEDCHIAAMVCMTY", "RNF31 PUB domain (Homo sapiens, UniProt Q96EP0)", 0),
    ("DPAYTLCSWAAMYCDSM", "RNF31 PUB domain (Homo sapiens, UniProt Q96EP0)", 0),
    ("DPADWDCMYAAQDCFED", "RNF31 PUB domain (Homo sapiens, UniProt Q96EP0)", 1),
    ("DPAIQECYLAAQVCTTY", "RNF31 PUB domain (Homo sapiens, UniProt Q96EP0)", 0),
    ("DPAMQDCQLAALVCTTY", "RNF31 PUB domain (Homo sapiens, UniProt Q96EP0)", 0),
    ("DPAQHECIYAAWDCDML", "RNF31 PUB domain (Homo sapiens, UniProt Q96EP0)", 1),
    ("DPAYWDCMYAAFYCDDI", "RNF31 PUB domain (Homo sapiens, UniProt Q96EP0)", 0),
    ("DPASHMCLEAAVMCTYD", "RNF31 PUB domain (Homo sapiens, UniProt Q96EP0)", 0),
    ("DPAMIDCFLAAQVCATY (not fully specified; cysteine pairing not given here)", "RNF31 PUB domain (Homo sapiens, UniProt Q96EP0)", 0),
    ("DPAYWHCLYAAASCDDI", "RNF31 PUB domain (Homo sapiens, UniProt Q96EP0)", 0),
    ("DPAWEWCLYAAAECIED", "RNF31 PUB domain (Homo sapiens, UniProt Q96EP0)", 0),
    ("DPAEQFCLYAAYDCYSE", "RNF31 PUB domain (Homo sapiens, UniProt Q96EP0)", 0),
    ("DPAYWQCIYAAWDCDQM", "RNF31 PUB domain (Homo sapiens, UniProt Q96EP0)", 1),
    ("DPAIRECMLAALVCSTY", "RNF31 PUB domain (Homo sapiens, UniProt Q96EP0)", 3),
    ("DPATWWCLYAAEDCVNI", "RNF31 PUB domain (Homo sapiens, UniProt Q96EP0)", 0),
    ("DPALEICWDAAIQCSYV", "RNF31 PUB domain (Homo sapiens, UniProt Q96EP0)", 4),
    ("DPAEEYCLEAAILCTYD", "RNF31 PUB domain (Homo sapiens, UniProt Q96EP0)", 1),
    ("DPAYDYCLYAAYDCTQT", "RNF31 PUB domain (Homo sapiens, UniProt Q96EP0)", 1),
    ("DPAYWDCLYAAWSCDIL", "RNF31 PUB domain (Homo sapiens, UniProt Q96EP0)", 0),
    ("DPASEWCLDAAVLCTYS", "RNF31 PUB domain (Homo sapiens, UniProt Q96EP0)", 3),
    ("DPAEWDCLYAAFDCFAN", "RNF31 PUB domain (Homo sapiens, UniProt Q96EP0)", 0),
    ("DPAWWDCMYAASHCDTV", "RNF31 PUB domain (Homo sapiens, UniProt Q96EP0)", 0),
    ("DPAYDWCMYAAHECVDQ", "RNF31 PUB domain (Homo sapiens, UniProt Q96EP0)", 0),
    ("DPARDWCLYAAYDCYTA (Ac-DPARDWCLYAAYDCYTA-NH2; not fully specified (bridges); cysteine pairing not given here)", "RNF31 PUB domain (Homo sapiens, UniProt Q96EP0)", 4),
    ("DPAHDWCLYAAYDCRVY", "RNF31 PUB domain (Homo sapiens, UniProt Q96EP0)", 1),
    ("DPAYSLCISAAVECTYY", "RNF31 PUB domain (Homo sapiens, UniProt Q96EP0)", 0),
]
